For each entry below, report its pKd value.
Target: T1, human IL-23 (human, UniProt Q9NPF7 20-189; P29460 23-328)
T1 construct: Bought recombinant heterodimeric cytokine (eBioscience 34-8239-85 for panning; R&D Systems for the splenocyte assay); also called hIL-23; hIL23
T1 sequence (looked up) 1: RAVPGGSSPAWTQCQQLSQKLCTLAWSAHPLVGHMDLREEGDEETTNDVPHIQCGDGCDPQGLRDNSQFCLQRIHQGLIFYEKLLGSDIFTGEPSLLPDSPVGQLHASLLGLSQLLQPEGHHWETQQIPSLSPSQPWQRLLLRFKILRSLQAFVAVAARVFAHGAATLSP
T1 sequence (looked up) 2: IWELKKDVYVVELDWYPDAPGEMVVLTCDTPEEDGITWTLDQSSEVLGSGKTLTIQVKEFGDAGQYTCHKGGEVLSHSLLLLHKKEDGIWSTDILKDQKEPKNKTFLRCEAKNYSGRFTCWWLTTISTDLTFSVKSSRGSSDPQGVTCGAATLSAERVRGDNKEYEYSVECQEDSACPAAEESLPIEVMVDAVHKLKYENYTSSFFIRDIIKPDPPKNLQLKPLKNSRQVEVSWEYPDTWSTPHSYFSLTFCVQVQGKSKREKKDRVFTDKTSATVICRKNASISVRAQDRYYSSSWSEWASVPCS
Assay: kinetic ELISA, soluble polypeptide
Answers are plain numbers, as −log10 of the molar value.

Check out these entries, answers already filled in.
{"columns": ["BINDER", "ENDPOINT_RESULT"],
 "data": [
  ["MA5 (designed binder) MSIKQIQKEIAQIQEVIAAIQKWIYRMTGGSGGSGGMSIEEIQKQIAAIQCQIAAIQKQIYAMTGSGGGGSGGSGGGGSGMSIEEIQKQIAAIQDQIVAIYKQIMAMSS", 10.52],
  ["MAcons (designed binder, also called polypeptide 15) single chain Alphabody: MSIQQIQKEIAQIQEVIAAIQKWIYSMTGGSGGSGGGGSGGSGGMSIEEIQKQIAAIQCQIAAIQKQIYAMTGSGGGGSGMSIEEIQKQIAAIQDQIVAIYKQIMAMSG", 9.89]
]}

Each binder below has a recorded value; state its pKd.
1. MA9 (designed binder) MSIQQIQKEITTIQAVIAAIQKWIYTMTGGSGGSGGGGSGGSGGMSIEEIQKQIAAIQCQIAAIQKQIYAMTGSGGGGSGMSIEEIQKQIAAIQGQIIAIYKQIMAMKD
2. MB76 (designed binder) MSIQQIQKEITQIQEVIAAIQKYIYRMTGGSGGSDGMSIEEIQKQIAAIQCQIAAIQKQIYAMTGSGGGGSGMSIEEIQKQIAAIQGQILAIYKQIMAMSL

1. 9.60
2. 8.64
